- System: A549/ATCC NSCLC
- measurement-notes: NCI-60 one-dose screen, 48 h (100 = growth as untreated, 0 = no growth, -100 = all killed)
- applied-conditions: 10 µM unless noted
Compounds without any hit were thinned out: in the full panel of roughly 83,000, 20% have a hit.
growth values for the compounds below.
readout-kind: growth (%)

> print(dat)
                                    compound  readout.kind  readout.unit  result.value
 1  CC(=O)O[C@H]1CC[C@H]2[C@@H]3CC[C@H]4CC=C(C)C[C@]4(C)[C@H]3CC[C@]12C        growth             %           107
 2  COc1cc(C2CC(=O)Nc3nc(N)[se]c32)c(OC)c2c1OCO2 (centres undefined)        growth             %          58.9
 3  Cc1cccc(N=C2c3cc([N+](=O)[O-])ccc3-c3c2cc([N+](=O)[O-])cc3[N+](=O)[O-])c1        growth             %          72.1
 4          N#[N+]c1nc2nc(N)[nH]c(=O)c2[nH]1        growth             %          89.8
 5  N#CC1c2ccccc2C=CN1C(=O)c1ccc(N(CCCl)CCCl)cc1 (centres undefined)        growth             %            79
 6  O=C1C=CC(=O)C2C1C1(Cl)C(Cl)=C(Cl)C2(Cl)C1(Cl)Cl (centres undefined)        growth             %          60.6
 7  CCC(/C=C(C)/C=C/C(=O)c1c(O)c(-c2ccc(O)cc2)c[nH]c1=O)CO (centres undefined)        growth             %          90.2
 8  CC1(C)N=C(N)N=C(N)N1c1ccc(OCCCCOc2ccc(S(=O)(=O)F)cc2)c(Cl)c1        growth             %          11.2
 9  CC(=O)N(C)C1=Nc2ccc(Cl)cc2C(c2ccccc2)=[N+]([O-])C1        growth             %           106
10                CC(/C=N/N=C(N)N)=N/N=C(N)N        growth             %           106
11  O=C(O)C1(Br)CC12c1ccccc1-c1ccccc12 (centres undefined)        growth             %          98.4
12             O=C(O)c1[nH]c(=O)[nH]c(=O)c1F        growth             %          90.1
13  O=S(=O)(Cl)c1ccccc1 (tested in a mixture with another compound)        growth             %           102
14                S=P(N1CCCCCC1)(N1CC1)N1CC1        growth             %           104
15   Nc1c(Br)cc([N+](=O)[O-])cc1[N+](=O)[O-]        growth             %          92.3
16       O=C(Nc1ccc(S(=O)(=O)F)cc1)Oc1ccccc1        growth             %          97.2
17  COc1cc(/C=C\c2cc(OC)c(OC)c(OC)c2)cc(N/C=C\C(=O)c2ccc(OC(F)(F)F)cc2)c1OC        growth             %          19.4
18  CCOC(=O)C1(c2ccccc2)CCN(CC(=O)c2ccc(NC(C)=O)cc2)CC1        growth             %            95
19  O=[N+]([O-])c1ccc2cnn(CSP(=S)(c3ccccc3)c3ccccc3)c2c1        growth             %          73.3
